Reported logEC50 (cAMP) values follow for various binders
- testSystem: T1, human GIP receptor (human, UniProt P48546 22-466)
- T1 sequence (looked up): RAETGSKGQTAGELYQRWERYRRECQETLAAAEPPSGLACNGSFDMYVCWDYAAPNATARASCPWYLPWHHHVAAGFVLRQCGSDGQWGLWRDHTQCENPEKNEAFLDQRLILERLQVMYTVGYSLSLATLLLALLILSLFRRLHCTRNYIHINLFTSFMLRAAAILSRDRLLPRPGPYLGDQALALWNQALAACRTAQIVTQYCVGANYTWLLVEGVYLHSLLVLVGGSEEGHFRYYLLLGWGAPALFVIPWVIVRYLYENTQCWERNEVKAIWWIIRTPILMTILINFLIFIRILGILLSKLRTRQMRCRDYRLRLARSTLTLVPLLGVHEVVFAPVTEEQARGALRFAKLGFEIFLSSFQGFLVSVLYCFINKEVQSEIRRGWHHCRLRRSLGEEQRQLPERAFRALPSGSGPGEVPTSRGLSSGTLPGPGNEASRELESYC
- measurementDescription: cell-based or functional assay
Ends that are not written are not given here. * marks the point of attachment. Lauroyl = CCCCCCCCCCCC(=O)*

In the examples that follow, each entry is paired with its recorded logEC50 (cAMP).
Input: Field request: logEC50 (cAMP) | item: HADGTFISDYSTILDNLAARDFINWLIQTK(Lauroyl)ITK [GIP-GLP-2 co-agonist 30]
Output: -9.2

Input: What value of logEC50 (cAMP) has been recorded for this entry: HADGTFSSDYSTILDNLAAKDFINWLIQTKITD [GIP-GLP-2 co-agonist 20]
Output: -9.23

Please examine the following record next.
Input: Data request, read-out logEC50 (cAMP), for HADGTFISDYSTILDKLAARDFINWLIQTKITK [GIP-GLP-2 co-agonist 26]
Output: -10.5
